# Tested on: MAb 40.1
# TEST PROTOCOL: Antibody screening of lambda-gt 11 cDNA clones: binding of MAb 40.1
# Design: key: ++: strongest binding; -: no binding
# COND: protein expressed by lambda-gt 11 clone in E. coli Y1090, plaque lift
# Method: Poly (A+) mRNA isolated from mature rye grass pollen by the phenol method ([…] and Michaels, (1984) Plant Mol. Biol. Rep., 2:24-28) was used to construct a cDNA library in the vector lambda-gt 11. The library was then screened with antibody probes to detect sequences expressing Group I proteins. E. coli […] transfected with 3×10^4 recombinant phages were plated and incubated at 42° C. for 3 h. […]
OBSERVATION TYPE: Binding of MAb 40.1

Worked cases, answers included:
VPAAKIPTGELQI [Peptide 18]    ++
TAYDVAYKAAEG [Peptide 12]    ++
GFKAAVAAAANA [Peptide 6]    ++
LATSAAKAPGLI [Peptide 10]    -

Dear colleague, I am looking for the recorded Binding of MAb 40.1 of the following sequence: FSESSKGLLATS [Peptide 9] -

Query: Binding of MAb 40.1; subject: AVKPATEEVPAA [Peptide 17] ++

Return reported Binding of MAb 40.1; argument: IAGALEVHAVKPA [Peptide 16] ++
